Task for the reader: assign each of the following compounds its reported melting point.

Prompt: Give melting point for the following compound: CCOC(=O)COc1ccc(C(=O)CN2Cc3cc(C(=N)NO)ccc3C2=O)cc1Cl
Response: 201 to 202 °C

Prompt: Give the reported melting point for this compound. CCOC(=O)COc1ccc(C(=O)CN2Cc3cc(C(=N)NO)ccc3C2=O)cc1S(=O)(=O)CC
Response: 196 to 197 °C

Prompt: Hello, please tell me recorded melting point for this one: CCOC(=O)COc1cc(O)c(C(=O)CN2Cc3cc(C(=N)NO)ccc3C2=O)cc1CC
Response: 218 to 219 °C

Prompt: Look up and state reported melting point for N=C(N)c1ccc2c(c1)CN(CC(=O)c1ccc(OCC(=O)OC3CCN(C(=O)OCc4ccccc4)CC3)cc1)C2=O (hydrate or solvate)
Response: 180 to 181 °C
